# PROCEDURE TEXT: protein stability index of a GFP-peptide fusion (GPS, HEK-293T) (PSI 1-6); higher = more stable;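 also: 24-mer peptide tiles fused after GFP, lentivirally expressed, FACS-sorted into six equal bins by GFP/DsRed ratio, decoded by Illumina sequencing, PSI is the read-weighted mean bin number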
# ASSAY SETUP: treatment: MLN4924 1 uM, 8 h; c terminus: a fixed tail appended
READOUT KIND: protein stability index

Take a look at these entries with their results.
INSERT INTO results (construct_sequence, reported_value) VALUES
  ('IVDIKPANMEDLTEVITASEFHPH [PPP2R2C]', 3.9),
  ('EEAKGALLGTSGLKRRFSRLENRY [DAPK3]', 3.96);

## Input For EVTADDRKVKSTITLDGGVLVHVQ [FABP4] , what is its reported protein stability index?
## Output 3.99

## Input Please answer likewise for NLLGEAAGGQDMADSMLMQGSRGL [HDAC6]
## Output 4.09

## Input Please answer likewise for LRTRGRTRGWVQTLARMSRRTRGP [C6orf223]
## Output 3.97

## Input Please answer likewise for VFGVPLTVNVQRTGQPLPQSIQQA [DLC1]
## Output 3
